# Target Entity: PfRH5 from Plasmodium falciparum strain HB3 (Plasmodium falciparum)
# Method Summary: cell-based or functional assay
Readout Type: Max growth inhibition (%)
State the answer as a number, implicitly in %.

* H1H29104P (antibody, V domains shown) VH: EVQLVESGGGLVQPGRSLRLSCAASGFRFDDYAMHWVRQAPGKGLEWVSGINWNSGGKGYADSVQGRFTISRDNAKNSLYLQMNSLRTEDTALYYCAKDRGIAARLLSRDAFDMWGQGTMVTVSS VL: DIQLTQSPSFLSASVGDRVTITCWASQDVSSYLAWYQQKPGKSPKLLIFAASTLQGGIPSRFSGSGSGTEFTLTISSLRPEDFATYYCQHLNTYPYTFGQGTKLEIKR | 39.8
* H1H29100P (antibody, V domains shown) VH: QLQLQESGPGLVKPSETLSLTCTVSGGSISSSSYYWGWIRQPPGKGLEWIGIIYYSGSTYYNPSLKSRVTISVDTSKNQFSLKLSSVTAADTAVYYCARQDREALFDYWGQGTLVTVSS VL: EIVLTQSPDFQSVTPKEKVTITCRASQRIGSSLHWYQQKPDQSPKLLIKYASQSFSGVPSRFSGSGSGTDFTLTINSLEAEDAATYYCHQSSTLPTFGQGTRLEIKR | 62.6
* H1H29089P (antibody, V domains shown) VH: EVQLVQSGAEVKKPGESLKISCKGSGYSFTSYWIVWVRQMPGKGLEWMGIIYPGDSDTRYSPSFQGQVTISADKSISTAYLQWSSLKASDTAMYYCARQDITGTTGFDYWGQGTLVTVSS VL: DIQMTQSPSSLSASVGDRVTITCRASQSIRNYLNWYQQKPGKAPKLLIYAASSLQSGVPSRFSGSGSGTDFTLTISSLQPEDFATYFCQQSYSTPFTFGPGTKVDIKR | 59.1
* H1H29127P (antibody, V domains shown) VH: QVQLVESGGGVVQPGRSLRLSCAASGFTFSSYGMHWVRQAPGKGLEWVAAIWYDGSNKYYADSVKGRFTISRDNSKNTLYLQMNSLRAEDTAVYFCARGEHYYGSGPFDPWGQGTLVTVSS VL: DIQMTQSPSSLSASVGDRVTITCRASQSISNYLNWYQQKPGKAPKLLIFAASSLQSGVPSRFSGSGSGTDFTLTISSLQPEDFATYYCQQSYSSPLTFGGGTKVEIKR | 59.4
* H1H29138P (antibody, V domains shown) VH: QVQLVESGGGVVQPGRSLRLSCAASGFTFSTYGMHWVRQAPGKGLEWVAVIWYDGTNKYYADSVKGRFTISRDNSKNTLYLQMISLRAEDTAVYYCARDPSGGDHYYYYGMDVWGQGTTVTVSS VL: DIQMTQSPSSLSASVGDRITITCQASQDISNYLNWYQQKPGKAPNLLISDASDLETGVPSRFSGSGSGTDFTFTISSLQPEDFATYYCQQYDNIPITFGQGTRLEIKR | 51.4

Now take the following binder into account.
Please fill in: Max growth inhibition (%) reported for H1H29109P (antibody, V domains shown) VH: EVQLVESGGGLVQPGRSLRLSCAVSGFTFDDYAMHWVRQAPGKGLEWVSGISWNSGDIDYADSVKGRFTISRDNAKNSLYLQMNSLRAEDTALYYCAKDTLSGTGTTWYYFDYWGQGTLVTVSS VL: DIQLTQSPSFLSASVGDRVTITCWASQGISSYLIWYQQKPGKAPKLLIYAASTLQSGVPSRFSGSGSGTEFTLTISSLQPEDFATYYCQQVNSYPLTFGGGTKVEIKR = 32.2
